TARGET UNDER TEST: Voltage-dependent N-type calcium channel subunit alpha-1B (Homo sapiens)
METHOD DESCRIPTION: disruptors of CaV2.2 binding to Mint1 – biochemical, HTRF (AID 2073)
SETTINGS: HTRF protein-protein interaction, Mint1-CaV2.2; at 20 µM; hits give high values
About 570 (0.2%) of roughly 290,000 compounds were called active. Another 1% or so got no clear call; they are omitted. Only a selection was taken, and actives are over-represented in it overall.
Reported inhibition values follow for various compounds
// note: answer is a bare numeric in %

Would you please look over these solved cases?
O=C1NC(=O)/C(=C/c2ccc(N3CCOCC3)o2)N1 ... 52.2
O=C(COC(=O)/C=C/c1ccco1)NCc1ccccc1 ... 13.7
Cc1[nH][nH]c(=O)c1C(c1ccc(-c2ccc(Cl)cc2Cl)o1)c1c(C)[nH][nH]c1=O ... 2

COc1cc(CN(C(=O)c2ccco2)C2CCS(=O)(=O)C2)cc(OC)c1OC (centres undefined) yielded inhibition of 11.2

----------
TARGET UNDER TEST: Voltage-dependent N-type calcium channel subunit alpha-1B (Homo sapiens) (UniProt Q00975)
Sequence (Q00975 whole entry, looked up): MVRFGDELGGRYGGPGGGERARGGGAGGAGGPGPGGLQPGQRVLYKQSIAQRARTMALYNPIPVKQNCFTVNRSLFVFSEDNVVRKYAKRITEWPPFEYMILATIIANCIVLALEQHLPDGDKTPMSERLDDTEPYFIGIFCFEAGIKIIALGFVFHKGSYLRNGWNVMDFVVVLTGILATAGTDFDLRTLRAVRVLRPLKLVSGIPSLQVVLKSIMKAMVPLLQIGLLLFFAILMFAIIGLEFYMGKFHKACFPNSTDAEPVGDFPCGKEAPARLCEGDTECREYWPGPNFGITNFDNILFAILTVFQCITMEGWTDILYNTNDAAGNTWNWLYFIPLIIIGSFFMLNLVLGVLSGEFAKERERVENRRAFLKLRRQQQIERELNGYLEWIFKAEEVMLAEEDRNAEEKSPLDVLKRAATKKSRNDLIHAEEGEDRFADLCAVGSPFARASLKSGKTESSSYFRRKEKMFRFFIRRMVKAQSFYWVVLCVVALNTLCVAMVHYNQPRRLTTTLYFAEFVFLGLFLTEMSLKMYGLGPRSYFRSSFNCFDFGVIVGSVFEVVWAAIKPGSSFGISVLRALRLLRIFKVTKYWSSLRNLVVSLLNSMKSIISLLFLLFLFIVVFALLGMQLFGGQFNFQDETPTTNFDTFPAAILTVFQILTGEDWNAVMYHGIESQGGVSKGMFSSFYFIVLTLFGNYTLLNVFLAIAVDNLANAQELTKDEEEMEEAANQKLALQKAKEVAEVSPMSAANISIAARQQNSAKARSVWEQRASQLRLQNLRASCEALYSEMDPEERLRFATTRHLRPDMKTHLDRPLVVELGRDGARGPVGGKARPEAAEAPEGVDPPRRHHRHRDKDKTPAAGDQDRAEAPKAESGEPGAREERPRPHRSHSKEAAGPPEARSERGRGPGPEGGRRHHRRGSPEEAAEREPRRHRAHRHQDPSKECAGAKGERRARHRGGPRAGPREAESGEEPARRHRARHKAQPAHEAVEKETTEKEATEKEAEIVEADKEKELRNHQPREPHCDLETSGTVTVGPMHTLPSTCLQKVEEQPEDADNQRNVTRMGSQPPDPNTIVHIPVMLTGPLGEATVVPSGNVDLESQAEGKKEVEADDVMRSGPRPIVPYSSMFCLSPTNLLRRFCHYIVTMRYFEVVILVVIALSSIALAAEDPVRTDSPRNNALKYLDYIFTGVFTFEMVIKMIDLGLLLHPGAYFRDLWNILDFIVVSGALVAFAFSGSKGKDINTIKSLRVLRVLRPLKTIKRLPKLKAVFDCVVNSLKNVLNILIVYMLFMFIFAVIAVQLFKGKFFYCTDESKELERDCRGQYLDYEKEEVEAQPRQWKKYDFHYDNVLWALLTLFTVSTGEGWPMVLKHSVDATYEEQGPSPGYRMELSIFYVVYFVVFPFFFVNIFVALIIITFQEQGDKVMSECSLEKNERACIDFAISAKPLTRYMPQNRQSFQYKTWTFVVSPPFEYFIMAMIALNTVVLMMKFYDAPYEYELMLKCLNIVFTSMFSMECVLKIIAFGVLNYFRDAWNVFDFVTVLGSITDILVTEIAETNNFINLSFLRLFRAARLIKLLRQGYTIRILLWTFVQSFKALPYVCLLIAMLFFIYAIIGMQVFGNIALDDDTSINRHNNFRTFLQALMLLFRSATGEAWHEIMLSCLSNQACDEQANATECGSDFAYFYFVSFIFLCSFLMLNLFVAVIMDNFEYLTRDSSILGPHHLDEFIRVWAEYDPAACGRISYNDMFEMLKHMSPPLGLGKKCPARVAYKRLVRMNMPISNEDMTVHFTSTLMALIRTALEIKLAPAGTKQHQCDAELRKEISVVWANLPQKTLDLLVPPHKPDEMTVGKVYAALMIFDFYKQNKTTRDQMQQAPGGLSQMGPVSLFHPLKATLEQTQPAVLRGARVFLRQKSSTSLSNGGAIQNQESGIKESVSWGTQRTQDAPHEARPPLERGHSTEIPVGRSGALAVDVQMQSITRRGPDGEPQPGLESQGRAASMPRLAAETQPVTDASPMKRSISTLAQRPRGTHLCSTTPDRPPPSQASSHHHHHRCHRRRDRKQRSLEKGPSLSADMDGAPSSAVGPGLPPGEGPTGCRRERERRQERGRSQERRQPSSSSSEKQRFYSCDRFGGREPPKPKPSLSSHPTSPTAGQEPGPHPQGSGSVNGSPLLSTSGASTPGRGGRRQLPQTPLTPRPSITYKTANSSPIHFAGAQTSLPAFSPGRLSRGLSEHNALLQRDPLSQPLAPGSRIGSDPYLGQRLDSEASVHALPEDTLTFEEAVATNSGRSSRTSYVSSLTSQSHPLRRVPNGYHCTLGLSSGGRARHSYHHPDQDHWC
METHOD DESCRIPTION: disruptors of CaV2.2 binding to Mint1 – biochemical, HTRF (AID 2073)
SETTINGS: HTRF protein-protein interaction, Mint1-CaV2.2; at 20 µM; hits give high values
Hit rate of the full screen: of about 290,000 compounds, about 570 (0.2%) were called active. Another 1% or so got no clear call; they are omitted. Many of the other results were omitted from the sample, so actives are more common in it than they were.
MEASURED ATTRIBUTE: inhibition (%)
// note: answer is a bare numeric in %

COC(=O)c1c(NC(=O)COC(=O)c2ccc(NC(=O)CC#N)cc2)sc2c1CCCCC2 ... 78.4
Cc1ccc(NC(=O)Nc2nnc(-c3ccncc3)s2)cc1C ... 76.4

COC(=O)c1c(NC(=O)COC(=O)c2ccc(O)cc2)sc2c1CCCCC2 yielded inhibition of 5.8

----------
TARGET UNDER TEST: Voltage-dependent N-type calcium channel subunit alpha-1B (Homo sapiens) (UniProt Q00975)
METHOD DESCRIPTION: disruptors of CaV2.2 binding to Mint1 – biochemical, HTRF (AID 2073)
SETTINGS: HTRF protein-protein interaction, Mint1-CaV2.2; at 20 µM; hits give high values
About 570 (0.2%) of roughly 290,000 compounds were called active. Inconclusive results (about 1%) are left out. Many of the other results were omitted from the sample, so actives are more common in it than they were.
MEASURED ATTRIBUTE: inhibition (%)
// note: answer is a bare numeric in %

Would you please look over these solved cases?
Cc1ccc2c(Cl)cc(Cl)c(OCC(=O)NC(=O)NCc3ccco3)c2n1 ... 17.4
O=C(Nc1nc(-c2cccnc2)cs1)c1ccc([N+](=O)[O-])cc1 ... 19
CCOC(=O)c1c(-c2ccccc2)oc2ccc(OC(C)=O)cc12 ... 7.9
COc1ccc(/C=N/NC(=O)c2ccc(CN3C(=O)c4cccc5cccc3c45)cc2)cc1O ... 71.7
N#Cc1c(-c2ccco2)cc(-c2ccccc2)[nH]c1=O ... 48.2

Cc1ccc(C(=O)NCCc2nnc3ccc(SCC(=O)Nc4c(C)cc(C)cc4C)nn23)cc1 yielded inhibition of 8.7

COc1ccc(Br)cc1C1CC(=O)N2CN(Cc3ccccc3)CSC2=C1C#N (centres undefined) yielded inhibition of 93.2

CNC(=O)/C(C#N)=C/c1ccc(-c2ccc(OC)cc2[N+](=O)[O-])o1 yielded inhibition of 11.4

N#CC1=C2SCN(Cc3ccccc3)CN2C(=O)CC1c1ccccc1F (centres undefined) yielded inhibition of 85.9

----------
TARGET UNDER TEST: Voltage-dependent N-type calcium channel subunit alpha-1B (Homo sapiens) (UniProt Q00975)
METHOD DESCRIPTION: disruptors of CaV2.2 binding to Mint1 – biochemical, HTRF (AID 2073)
SETTINGS: HTRF protein-protein interaction, Mint1-CaV2.2; at 20 µM; hits give high values
In all, about 290,000 compounds went through this assay and about 570 (0.2%) were called active. Roughly 1% stayed inconclusive and do not appear here. Shown is part of a subset that was picked to be rich in actives.
Reported inhibition values follow for various molecules
// note: answer is a bare numeric in %

Would you please look over these solved cases?
Cc1ccc(-c2nc3ccccc3o2)cc1NC(=O)c1ccc2c(c1)OCO2 ... -1.5
CCc1ccc(C2CC(=O)N3CN(c4ccccc4)CSC3=C2C#N)cc1 (configuration not stated) ... 88
O=c1[nH]c2ccccc2c2nc3ccccn3c12 ... 23.2

COCCNC(=O)c1cccc(Nc2nc(-c3ccccc3)c3cc(Cl)ccc3n2)c1 yielded inhibition of 54.5

Cc1nc2ncccn2c1-c1csc(Nc2ccc(O)cc2)n1 yielded inhibition of 25

----------
TARGET UNDER TEST: Voltage-dependent N-type calcium channel subunit alpha-1B (Homo sapiens)
METHOD DESCRIPTION: disruptors of CaV2.2 binding to Mint1 – biochemical, HTRF (AID 2073)
SETTINGS: HTRF protein-protein interaction, Mint1-CaV2.2; at 20 µM
Hit rate of the full screen: of about 290,000 compounds, about 570 (0.2%) were called active. Roughly 1% stayed inconclusive and do not appear here. Rule as the data show it: active = inhibition mostly above about 51% (no sharp cut-off); inconclusive = no clear call, values can overlap the other calls; inactive = mostly below about 53%. For the sample, actives were picked, then their nearest neighbours and some compounds at random.
# valid calls are true for active, false for inactive; nothing else

# example entries with known answers
Oc1ccc(N=C/C=C/c2ccc(Br)cc2)cc1-c1nc2ccccc2s1 ... true
O=C(COC(=O)c1cnccn1)Nc1ccc(Cl)cc1 ... false
Cc1ccc(S(=O)(=O)n2c(=O)oc3ccccc32)cc1 ... false
CC(C)(C)NC(=O)CN(C(=O)C1(C)CC(=O)N=C2C=CC=CN21)C1CCCC1 (centres undefined) ... false

Exercise: What call does the record list for CC1(C)CC(=O)C=C(NNC(=O)C2CCCCC2)C1 ?
Solution: false

Exercise: What call does the record list for CC(=O)Nc1ccc(NC(=O)COC(=O)c2cnccn2)cc1 ?
Solution: false

----------
TARGET UNDER TEST: Voltage-dependent N-type calcium channel subunit alpha-1B (Homo sapiens) (UniProt Q00975)
METHOD DESCRIPTION: disruptors of CaV2.2 binding to Mint1 – biochemical, HTRF (AID 2073)
SETTINGS: HTRF protein-protein interaction, Mint1-CaV2.2; at 20 µM; hits give high values
The whole screen tested about 290,000 compounds, of which about 570 (0.2%) were called active. Roughly 1% stayed inconclusive and do not appear here. This excerpt belongs to a sample that is enriched for actives.
MEASURED ATTRIBUTE: inhibition

Would you please look over these solved cases?
O=C(O)c1cccc(NC(=O)c2ccc3c(c2)C(=O)N(c2cccc([N+](=O)[O-])c2)C3=O)c1 ... 26.4% (inactive)
Oc1ccc(Cl)cc1C=Nc1ccc2c3c(cccc13)CC2 ... 50.4% (inactive)
Cc1cccc(C=Nc2ccc3c4c(cccc24)CC3)c1O ... 7.8% (inactive)

Below: the item to evaluate.
Measured inhibition for this entry CCN(CC)S(=O)(=O)c1ccc(C(=O)Nc2ccc3c(c2)OCO3)cc1 on Voltage-dependent N-type calcium channel subunit alpha-1B (Homo sapiens) (UniProt Q00975): 9.9% (inactive)

----------
TARGET UNDER TEST: Voltage-dependent N-type calcium channel subunit alpha-1B (Homo sapiens)
METHOD DESCRIPTION: disruptors of CaV2.2 binding to Mint1 – biochemical, HTRF (AID 2073)
SETTINGS: HTRF protein-protein interaction, Mint1-CaV2.2; at 20 µM
The whole screen tested about 290,000 compounds, of which about 570 (0.2%) were called active. Inconclusive results (about 1%) are left out. Cut-off read from the data, not from the text of the source: active = inhibition mostly above about 51% (no sharp cut-off); inconclusive = no clear call, values can overlap the other calls; inactive = mostly below about 53%. This excerpt belongs to a sample that is enriched for actives.
# valid calls are class 1 for active, class 0 for inactive; nothing else

# example entries with known answers
COc1ccc(OC)c(NC(=O)c2c(NC(=O)CCC(=O)O)sc3c2CCCCC3)c1 ... class 1
COc1ccc2cc(C(c3nnnn3C(C)(C)C)N3CCc4ccccc4C3)c(=O)[nH]c2c1 (centres undefined) ... class 0
CCC(C)(C)n1nnnc1C(c1cc2ccc(OC)cc2[nH]c1=O)N1CCc2ccccc21 (centres undefined) ... class 0

Now take the following compound into account.
Exercise: What call does the record list for CC(=O)Nc1ccc(S(=O)(=O)N2CCOCC2)cc1 ?
Solution: class 0

----------
TARGET UNDER TEST: Voltage-dependent N-type calcium channel subunit alpha-1B (Homo sapiens) (UniProt Q00975)
METHOD DESCRIPTION: disruptors of CaV2.2 binding to Mint1 – biochemical, HTRF (AID 2073)
SETTINGS: HTRF protein-protein interaction, Mint1-CaV2.2; at 20 µM; hits give high values
Out of some 290,000 compounds screened, about 570 (0.2%) were called active. Another 1% or so got no clear call; they are omitted. The full list was thinned out, with actives kept by preference.
Quick rule for you: inhibition at 20% or higher means yes (1), lower means no (0).

# example entries with known answers
Cc1ncc(CO)c(/C=N/NC(=S)Nc2ccc(C(C)C)cc2)c1O ... no (0)
Cc1ccc(NC(=O)c2cc(-c3ccc(C)c(C)c3O)n[nH]2)cc1C ... no (0)
Cn1cc([N+](=O)[O-])c(C(=O)NCc2ccco2)n1 ... no (0)
CCN(CC)c1nc2c3c(nc4c(c3c1C#N)CC(=O)N4c1ccc(Cl)cc1)NC(C)=N2 ... no (0)
Cc1ncc(CO)c(/C=N/NC(=S)Nc2cccc(Cl)c2)c1O ... yes (1)

Exercise: Does the reported inhibition for COc1ccc(C(NC(=O)CC(C)C)c2c(O)ccc3ccccc23)cc1 (stereo not drawn) fall at or above the 20% mark?
Solution: no (0)

Exercise: Does the reported inhibition for CCOC(=O)c1cc2c(=O)n3ccccc3nc2n(Cc2ccco2)c1=NC(=O)c1ccc(OC)cc1 fall at or above the 20% mark?
Solution: yes (1)

Exercise: Does the reported inhibition for Cc1ncc(CO)c(/C=N/NC(=S)Nc2ccc(Cl)c(Cl)c2)c1O fall at or above the 20% mark?
Solution: yes (1)

Source of measurements: PubChem BioAssay AID2073
